# assay summary: Cytotoxicity against human SH-SY5Y cells assessed as cell viability at 100 uM incubated for 48 hrs by CCK-8 assay relative to control
# Format: toxicity, cell-based
# study conditions: read-out: Activity
assay readout: viability at 48 h, 100 µM

1) O=C1C=CC(=O)C(/C=C/C(=O)Nc2ccc(NC(=O)c3ccc(F)cc3F)cc2)=C1 | > 85%
2) O=C(/C=C/c1cc(O)ccc1O)Nc1ccc(NC(=O)c2ccc(F)cc2F)cc1 | > 85%
3) O=C(/C=C/c1cc(O)ccc1O)Nc1ccc(NC(=O)c2ccc(O)cc2)cc1 | > 85%
4) O=C(/C=C/c1cc(O)ccc1O)Nc1ccc(NC(=O)/C=C/c2cc(O)ccc2O)cc1 | > 85%
5) O=C1C=CC(=O)C(/C=C/C(=O)Nc2ccc(NC(=O)c3ccc(F)cc3)cc2)=C1 | > 85%
6) O=C1C=CC(=O)C(/C=C/C(=O)Nc2ccc(NC(=O)c3ccc(F)c(F)c3)cc2)=C1 | > 85%

----------
# Tested on: H4
# assay summary: Antioxidant activity in H2O2-induced human H4 cells assessed as reduction in ROS generation ratio preincubated with H2O2 for 3 hrs followed by DCFH-DA addition for 30 mins and further incubated with compound and measured after 30 mins by DCFH-DA dye based fluorescence microplate reader analysis
# Format: functional, cell-based
# study conditions: dose 3-10 µM
assay readout: Activity

1) O=C1C=CC(=O)C(/C=C/C(=O)Nc2ccc(NC(=O)c3ccc(F)c(F)c3)cc2)=C1 | Dose-Dependent Effect
2) O=C(/C=C/c1cc(O)ccc1O)Nc1ccc(NC(=O)c2ccc(O)cc2)cc1 | Dose-Dependent Effect
3) O=C(/C=C/c1cc(O)ccc1O)Nc1ccc(NC(=O)c2ccc(F)cc2F)cc1 | Dose-Dependent Effect
4) O=C(/C=C/c1cc(O)ccc1O)Nc1ccc(NC(=O)/C=C/c2cc(O)ccc2O)cc1 | Dose-Dependent Effect
5) O=C1C=CC(=O)C(/C=C/C(=O)Nc2ccc(NC(=O)c3ccc(F)cc3)cc2)=C1 | Dose-Dependent Effect
6) O=C(/C=C/c1ccc(O)c(O)c1)Nc1ccc(NC(=O)c2ccc(F)cc2)cc1 | Dose-Dependent Effect
7) O=C1C=CC(=O)C(/C=C/C(=O)Nc2ccc(NC(=O)c3ccc(F)cc3F)cc2)=C1 | Dose-Dependent Effect
